measurement-target: human DLL3 protein expressed on CHO-K1 recombinant cells (human DLL3 extracellular segment fused to EpCAM transmembrane and intracellular regions) (human) (UniProt Q9NYJ7)
Sequence (Q9NYJ7 other isoform, or with tags, fused parts or gaps limits assumed): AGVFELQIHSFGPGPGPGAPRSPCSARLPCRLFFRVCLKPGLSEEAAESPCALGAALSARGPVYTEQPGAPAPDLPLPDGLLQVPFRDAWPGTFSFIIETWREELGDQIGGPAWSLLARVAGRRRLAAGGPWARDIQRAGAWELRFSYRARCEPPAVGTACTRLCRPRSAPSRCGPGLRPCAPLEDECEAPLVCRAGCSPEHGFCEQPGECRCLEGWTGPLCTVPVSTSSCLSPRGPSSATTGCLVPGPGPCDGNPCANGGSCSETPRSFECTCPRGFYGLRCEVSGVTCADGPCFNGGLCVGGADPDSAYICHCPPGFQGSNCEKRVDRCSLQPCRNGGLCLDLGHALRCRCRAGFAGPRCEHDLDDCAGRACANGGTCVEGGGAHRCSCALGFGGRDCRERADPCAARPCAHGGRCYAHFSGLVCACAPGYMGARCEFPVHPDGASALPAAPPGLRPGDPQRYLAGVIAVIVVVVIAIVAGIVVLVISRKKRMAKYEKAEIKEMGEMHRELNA
test: FACS, CHO-K1 hDLL3 cells, 100 nM antibody
endpoint: MFI (MFI)
Kindly provide the numeric value in MFI only, without the unit symbol.

binder	MFI, MFI
Hab015VL5VH6a-hFc (scFv, part only; not given: scFv linker and human IgG1 Fc, V domains shown, not shown: another chain or arm of the molecule; a dimerising Fc or GST; small tags and cut ends) VL: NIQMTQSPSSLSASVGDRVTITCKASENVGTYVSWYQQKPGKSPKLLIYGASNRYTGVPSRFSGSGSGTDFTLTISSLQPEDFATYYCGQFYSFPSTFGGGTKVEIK VH: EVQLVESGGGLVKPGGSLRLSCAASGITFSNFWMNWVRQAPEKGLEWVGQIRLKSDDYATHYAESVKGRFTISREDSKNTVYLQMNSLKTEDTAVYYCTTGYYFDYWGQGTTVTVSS	11300
Hab014VL3VH1-hFc (scFv, part only; not given: VL-VH linker and human IgG1 Fc, V domains shown, not shown: another chain or arm of the molecule; a dimerising Fc or GST; small tags and cut ends) VL: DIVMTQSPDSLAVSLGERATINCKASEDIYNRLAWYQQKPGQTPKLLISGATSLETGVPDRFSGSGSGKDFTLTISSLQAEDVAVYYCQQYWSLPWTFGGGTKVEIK VH: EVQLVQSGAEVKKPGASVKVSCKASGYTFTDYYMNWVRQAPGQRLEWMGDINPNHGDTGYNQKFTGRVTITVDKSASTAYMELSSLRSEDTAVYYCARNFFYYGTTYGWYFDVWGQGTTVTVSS	16500
Hab015VL4VH6a-hFc (scFv, part only; not given: scFv linker and human IgG1 Fc, V domains shown, not shown: another chain or arm of the molecule; a dimerising Fc or GST; small tags and cut ends) VL: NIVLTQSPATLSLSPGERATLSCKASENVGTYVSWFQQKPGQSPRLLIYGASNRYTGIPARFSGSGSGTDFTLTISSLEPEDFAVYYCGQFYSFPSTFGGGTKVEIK VH: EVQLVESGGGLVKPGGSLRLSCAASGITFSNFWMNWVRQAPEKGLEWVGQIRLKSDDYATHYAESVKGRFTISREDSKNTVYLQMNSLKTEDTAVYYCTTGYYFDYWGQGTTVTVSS	12200

# query: MFI of entry Hab015VL5VH5a-hFc (scFv, part only; not given: scFv linker and human IgG1 Fc, V domains shown, not shown: another chain or arm of the molecule; a dimerising Fc or GST; small tags and cut ends) VL: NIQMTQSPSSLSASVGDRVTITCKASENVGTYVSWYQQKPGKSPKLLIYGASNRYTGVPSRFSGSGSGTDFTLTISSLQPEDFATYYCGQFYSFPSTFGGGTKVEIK VH: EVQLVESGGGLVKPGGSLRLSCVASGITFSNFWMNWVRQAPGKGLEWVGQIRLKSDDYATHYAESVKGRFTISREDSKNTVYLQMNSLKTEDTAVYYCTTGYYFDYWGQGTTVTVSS
12000

# query: MFI of entry BI3 (antibody, human IgG1, kappa, V domains shown) VH: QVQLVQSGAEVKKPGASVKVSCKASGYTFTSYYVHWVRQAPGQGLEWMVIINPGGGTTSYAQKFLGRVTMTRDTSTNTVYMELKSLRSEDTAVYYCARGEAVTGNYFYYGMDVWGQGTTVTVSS VL: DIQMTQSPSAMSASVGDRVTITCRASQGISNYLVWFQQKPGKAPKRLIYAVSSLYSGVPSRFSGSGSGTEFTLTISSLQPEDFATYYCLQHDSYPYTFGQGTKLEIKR
13200
